Reference source for all entries: patent US20100324086A1

# target-or-system: recombinant, membrane-bound mPGES-1 (Homo sapiens)
# Sequence (O14684 1-152): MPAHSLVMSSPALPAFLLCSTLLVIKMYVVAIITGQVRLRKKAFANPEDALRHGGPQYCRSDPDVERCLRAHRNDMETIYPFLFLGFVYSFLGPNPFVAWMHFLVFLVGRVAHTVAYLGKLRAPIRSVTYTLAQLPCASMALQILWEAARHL
# assay-overview: Thiobarbituric acid assay (TBA-MDA assay), inhibition of mPGES-1
# assay-setup: remaining PGH2 measured at 535 nm
pIC50: −log10 of the molar value.

| structure-string | pIC50 |
| --- | --- |
| O=C(Nc1ccc2ccccc2n1)c1cccc(NC(=O)c2ccccc2I)c1 | 6.54 |
| O=C(NCc1cccc(-c2ccccc2)c1)c1cccc(NC(=O)c2ccccc2C(F)(F)F)c1 | 6.49 |
| COc1ccccc1CNC(=O)c1cccc(NC(=O)c2ccccc2C(F)(F)F)c1 | 6.08 |
| O=C(Nc1ccc(C(F)(F)F)cn1)c1cccc(NC(=O)c2ccccc2C(F)(F)F)c1 | 7.31 |
